Organism: Rattus norvegicus
ASSAY_PROCEDURE: Open TG-GATES - Regimen: Daily Repeat
Format: toxicity, organism-based, Sprague-Dawley
Set-up: regimen Daily Repeat, gender Male, age 6 weeks
CONDITION_PARAMETERS: in vivo, po, 0 mg/kg, 72 h, tissue Blood, route gavage, dose level Control, time 3 day
List of Ret values.
Quick note: give the figure in %, leave out the unit.

In the examples that follow, each entry is paired with its recorded Ret.
>  <COMPOUND>
CCCCc1oc2ccccc2c1C(=O)c1cc(I)c(OCCN(CC)CC)c(I)c1

>  <Ret, %>
6.4

$$$$
>  <COMPOUND>
CN(C)CCC=C1c2ccccc2COc2ccccc21 [DOXEPIN]

>  <Ret, %>
7.8

$$$$
>  <COMPOUND>
CC(C)N(CCC(C(N)=O)(c1ccccc1)c1ccccn1)C(C)C (stereo unspecified) [DISOPYRAMIDE]

>  <Ret, %>
7.1

$$$$
>  <COMPOUND>
O=NN(CCCl)C(=O)NC1CCCCC1

>  <Ret, %>
7.2

$$$$
>  <COMPOUND>
OCCOCCN1CCN(C(c2ccccc2)c2ccc(Cl)cc2)CC1 (stereo unspecified) [HYDROXYZINE]

>  <Ret, %>
7.5

$$$$
>  <COMPOUND>
ClC(Cl)(Cl)Cl [CARBON TETRACHLORIDE]

>  <Ret, %>
7.4

$$$$
>  <COMPOUND>
CCc1oc2ccccc2c1C(=O)c1cc(Br)c(O)c(Br)c1

>  <Ret, %>
7.2

$$$$
>  <COMPOUND>
CN(C)C(=N)N=C(N)N

>  <Ret, %>
6.9

$$$$

// query Record request: Ret value, item CCC1(c2ccccc2)C(=O)NC(=O)NC1=O
// result 7.7

// query Item: CC1=C(CC(=O)O)c2cc(F)ccc2/C1=C\c1ccc([S+](C)[O-])cc1 (stereo unspecified)
// result 7.1

// query Item: CC[C@H]1[C@@H]2C[C@H]3[C@@H]4N(C)c5ccccc5[C@]45C[C@@H]([C@@H]2[C@H]5O)N3[C@@H]1O
// result 8

###

Species on record: Rattus norvegicus
ASSAY_PROCEDURE: Open TG-GATES - Regimen: Daily Repeat
Format: toxicity, organism-based, Sprague-Dawley
Parameters: regimen Daily Repeat, gender Male, age 6 weeks
CONDITION_PARAMETERS: in vivo, po, 0 mg/kg, […], tissue Plasma, route gavage, dose level Control, time 28 day
List of Cl values.
Quick note: give the figure in meq/L, leave out the unit.

>  <COMPOUND>
O=NN(CCCl)C(=O)NC1CCCCC1 [LOMUSTINE]

>  <UOM>
meq/L

>  <Cl>
106

$$$$

// query Record request: Cl value, item CC1=C(CC(=O)O)c2cc(F)ccc2/C1=C\c1ccc([S+](C)[O-])cc1 (centres undefined)
// result 105

// query Item: CCc1oc2ccccc2c1C(=O)c1cc(Br)c(O)c(Br)c1 [BENZBROMARONE]
// result 106.7

// query Item: ClC(Cl)(Cl)Cl [CARBON TETRACHLORIDE]
// result 102.2

// query Item: OCCOCCN1CCN(C(c2ccccc2)c2ccc(Cl)cc2)CC1 (centres undefined) [HYDROXYZINE]
// result 106

// query Item: CN(C)C(=N)N=C(N)N [METFORMIN]
// result 105.4

// query Item: CCC1(c2ccccc2)C(=O)NC(=O)NC1=O [PHENOBARBITAL]
// result 106.4

// query Item: CC(C)N(CCC(C(N)=O)(c1ccccc1)c1ccccn1)C(C)C (centres undefined) [DISOPYRAMIDE]
// result 105

// query Item: CC[C@H]1[C@@H]2C[C@H]3[C@@H]4N(C)c5ccccc5[C@]45C[C@@H]([C@@H]2[C@H]5O)N3[C@@H]1O [AJMALINE]
// result 105.2
